system-tested: MAGI3-5 (Homo sapiens, UniProt Q5TCQ9)
Sequence (Q5TCQ9 whole entry): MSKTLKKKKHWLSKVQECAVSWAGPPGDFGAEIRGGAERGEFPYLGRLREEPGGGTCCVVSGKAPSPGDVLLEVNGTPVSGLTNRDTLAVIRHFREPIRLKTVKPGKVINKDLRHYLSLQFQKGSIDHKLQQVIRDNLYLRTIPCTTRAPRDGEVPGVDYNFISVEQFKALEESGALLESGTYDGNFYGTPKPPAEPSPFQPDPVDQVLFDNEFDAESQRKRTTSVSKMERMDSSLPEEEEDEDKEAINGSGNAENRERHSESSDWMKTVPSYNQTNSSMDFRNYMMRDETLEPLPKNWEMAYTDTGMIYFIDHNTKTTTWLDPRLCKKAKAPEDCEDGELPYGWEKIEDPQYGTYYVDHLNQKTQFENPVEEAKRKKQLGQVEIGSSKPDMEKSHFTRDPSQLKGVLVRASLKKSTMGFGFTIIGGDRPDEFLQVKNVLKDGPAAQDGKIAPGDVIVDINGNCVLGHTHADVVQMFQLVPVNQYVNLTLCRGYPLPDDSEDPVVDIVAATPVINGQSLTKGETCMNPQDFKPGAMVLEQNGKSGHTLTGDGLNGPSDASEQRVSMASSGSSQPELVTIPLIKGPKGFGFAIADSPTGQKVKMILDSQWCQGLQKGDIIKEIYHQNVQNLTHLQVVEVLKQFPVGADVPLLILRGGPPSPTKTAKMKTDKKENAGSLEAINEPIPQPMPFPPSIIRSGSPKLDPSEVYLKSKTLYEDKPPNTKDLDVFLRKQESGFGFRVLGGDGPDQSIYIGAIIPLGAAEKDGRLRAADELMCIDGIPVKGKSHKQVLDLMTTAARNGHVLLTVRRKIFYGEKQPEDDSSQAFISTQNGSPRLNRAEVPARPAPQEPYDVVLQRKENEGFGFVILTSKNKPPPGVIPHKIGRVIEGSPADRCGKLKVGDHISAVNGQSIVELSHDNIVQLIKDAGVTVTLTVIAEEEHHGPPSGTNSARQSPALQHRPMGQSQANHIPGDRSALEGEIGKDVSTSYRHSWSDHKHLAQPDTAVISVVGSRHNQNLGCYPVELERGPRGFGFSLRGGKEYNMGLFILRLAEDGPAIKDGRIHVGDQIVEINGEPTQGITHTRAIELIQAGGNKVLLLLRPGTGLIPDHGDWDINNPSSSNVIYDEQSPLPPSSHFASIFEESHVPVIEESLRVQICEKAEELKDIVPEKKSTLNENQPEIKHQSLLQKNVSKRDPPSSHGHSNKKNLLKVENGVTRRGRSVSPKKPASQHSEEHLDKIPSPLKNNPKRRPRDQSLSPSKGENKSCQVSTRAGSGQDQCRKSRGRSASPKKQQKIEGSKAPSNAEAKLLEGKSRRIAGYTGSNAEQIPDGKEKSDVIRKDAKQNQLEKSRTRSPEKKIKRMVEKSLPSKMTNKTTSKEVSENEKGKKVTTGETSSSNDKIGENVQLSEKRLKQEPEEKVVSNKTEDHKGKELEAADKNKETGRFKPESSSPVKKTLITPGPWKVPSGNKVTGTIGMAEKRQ
test-method-notes: Holdup assay, MAGI3-5
Assay type: binding
*1 amine or outer side, *2 acyl side, *3 side chain or, on linkers, in order; H or OH if unused. Where a SMILES comes first, the peptide text is derived from it. The star is where a group is joined. X1 = O=C(CCCC[C@@H]1SC[C@@H]2NC(=O)N[C@@H]21)NCCCOCCOCCOCCCN*; Suc = O=C(CCC(=O)[*:2])[*:1]
Would you mind telling me the reported BI of each entry?
Hey, just send me the number, nothing else.

Entry CC[C@H](C)[C@H](NC(=O)[C@H](CCC(N)=O)NC(=O)[C@@H](NC(=O)[C@H](Cc1c[nH]cn1)NC(=O)[C@H](CCC(N)=O)NC(=O)[C@H](CC(=O)O)NC(=O)[C@H](CCC(=O)O)NC(=O)[C@H](CC(=O)O)NC(=O)CCC(=O)NCCCOCCOCCOCCCNC(=O)CCCC[C@@H]1SC[C@@H]2NC(=O)N[C@@H]21)[C@@H](C)O)C(=O)N[C@H](C(=O)N[C@@H](CCCCNC(C)=O)C(=O)N[C@H](C(=O)O)C(C)C)[C@@H](C)O : reported BI = ?
0.21

Bench note: what BI did CC[C@H](C)[C@H](NC(=O)[C@H](CCC(N)=O)NC(=O)[C@@H](NC(=O)[C@H](Cc1c[nH]cn1)NC(=O)[C@H](CCC(N)=O)NC(=O)[C@H](CC(=O)O)NC(=O)[C@H](CCC(=O)O)NC(=O)[C@H](CC(=O)O)NC(=O)[C@H](Cc1ccccc1)NC(=O)[C@@H]1CCCN1C(=O)CCC(=O)NCCCOCCOCCOCCCNC(=O)CCCC[C@@H]1SC[C@@H]2NC(=O)N[C@@H]21)[C@@H](C)O)C(=O)N[C@H](C(=O)N[C@@H](CCCCN)C(=O)N[C@H](C(=O)O)C(C)C)[C@@H](C)O [PTEN_13] ({X1-Suc}-PFDEDQHTQITKV-OH) show?
0.064

Would you mind telling me what BI value was observed for CC[C@H](C)[C@H](NC(=O)[C@H](CCC(N)=O)NC(=O)[C@@H](NC(=O)[C@H](Cc1c[nH]cn1)NC(=O)[C@H](CCC(N)=O)NC(=O)[C@H](CC(=O)O)NC(=O)[C@H](CCC(=O)O)NC(=O)[C@H](CC(=O)O)NC(=O)CCC(=O)NCCCOCCOCCOCCCNC(=O)CCCC[C@@H]1SC[C@@H]2NC(=O)N[C@@H]21)[C@@H](C)O)C(=O)N[C@H](C(=O)N[C@@H](CCCCN)C(=O)N[C@H](C(=O)O)C(C)C)[C@@H](C)O ?
0.097

====

Test system: human PDZome
test-method-notes: Promiscuity / specificity index from PDZome affinity profile (combined holdup and FP)
Format: binding
details: relative to number of tested and validated PDZ domains
*1 amine or outer side, *2 acyl side, *3 side chain or, on linkers, in order; H or OH if unused. Where a SMILES comes first, the peptide text is derived from it. The star is where a group is joined. X1 = O=C(CCCC[C@@H]1SC[C@@H]2NC(=O)N[C@@H]21)NCCCOCCOCCOCCCN*; Suc = O=C(CCC(=O)[*:2])[*:1]
readout-kind: number of PDZ domains above the half-maximal binding affinity
Enter a number only.

Fill in the recorded number of PDZ domains above the half-maximal binding affinity for this compound, with human PDZome as test system: CC[C@H](C)[C@H](NC(=O)[C@H](CCC(N)=O)NC(=O)[C@@H](NC(=O)[C@H](Cc1c[nH]cn1)NC(=O)[C@H](CCC(N)=O)NC(=O)[C@H](CC(=O)O)NC(=O)[C@H](CCC(=O)O)NC(=O)[C@H](CC(=O)O)NC(=O)CCC(=O)NCCCOCCOCCOCCCNC(=O)CCCC[C@@H]1SC[C@@H]2NC(=O)N[C@@H]21)[C@@H](C)O)C(=O)N[C@H](C(=O)N[C@@H](CCCCNC(C)=O)C(=O)N[C@H](C(=O)O)C(C)C)[C@@H](C)O
12

Find the measured number of PDZ domains above the half-maximal binding affinity: item CC[C@H](C)[C@H](NC(=O)[C@H](CCC(N)=O)NC(=O)[C@@H](NC(=O)[C@H](Cc1c[nH]cn1)NC(=O)[C@H](CCC(N)=O)NC(=O)[C@H](CC(=O)O)NC(=O)[C@H](CCC(=O)O)NC(=O)[C@H](CC(=O)O)NC(=O)[C@H](Cc1ccccc1)NC(=O)[C@@H]1CCCN1C(=O)CCC(=O)NCCCOCCOCCOCCCNC(=O)CCCC[C@@H]1SC[C@@H]2NC(=O)N[C@@H]21)[C@@H](C)O)C(=O)N[C@H](C(=O)N[C@@H](CCCCN)C(=O)N[C@H](C(=O)O)C(C)C)[C@@H](C)O [PTEN_13] ({X1-Suc}-PFDEDQHTQITKV-OH) , target or system human PDZome.
4

Form field - read-out: number of PDZ domains above the half-maximal binding affinity; system: human PDZome; submitted item: CC[C@H](C)[C@H](NC(=O)[C@H](CCC(N)=O)NC(=O)[C@@H](NC(=O)[C@H](Cc1c[nH]cn1)NC(=O)[C@H](CCC(N)=O)NC(=O)[C@H](CC(=O)O)NC(=O)[C@H](CCC(=O)O)NC(=O)[C@H](CC(=O)O)NC(=O)CCC(=O)NCCCOCCOCCOCCCNC(=O)CCCC[C@@H]1SC[C@@H]2NC(=O)N[C@@H]21)[C@@H](C)O)C(=O)N[C@H](C(=O)N[C@@H](CCCNC(=N)N)C(=O)N[C@H](C(=O)O)C(C)C)[C@@H](C)O [PTEN_KR] ({X1-Suc}-DEDQHTQITRV-OH)
9

====

*1 amine or outer side, *2 acyl side, *3 side chain or, on linkers, in order; H or OH if unused. Where a SMILES comes first, the peptide text is derived from it. The star is where a group is joined. X1 = O=C(CCCC[C@@H]1SC[C@@H]2NC(=O)N[C@@H]21)NCCCOCCOCCOCCCN*; Suc = O=C(CCC(=O)[*:2])[*:1]
readout-kind: Kd (µM)
Answer in µM, number only, no unit symbol.

What is its Kd for HTRA1-1 (Homo sapiens)? Entry: CC[C@H](C)[C@H](NC(=O)[C@H](CCC(N)=O)NC(=O)[C@@H](NC(=O)[C@H](Cc1c[nH]cn1)NC(=O)[C@H](CCC(N)=O)NC(=O)[C@H](CC(=O)O)NC(=O)[C@H](CCC(=O)O)NC(=O)[C@H](CC(=O)O)NC(=O)CCC(=O)NCCCOCCOCCOCCCNC(=O)CCCC[C@@H]1SC[C@@H]2NC(=O)N[C@@H]21)[C@@H](C)O)C(=O)N[C@H](C(=O)N[C@@H](CCCNC(=N)N)C(=O)N[C@H](C(=O)O)C(C)C)[C@@H](C)O [PTEN_KR] ({X1-Suc}-DEDQHTQITRV-OH)
40.4

Give the reported Kd for CC[C@H](C)[C@H](NC(=O)[C@H](CCC(N)=O)NC(=O)[C@@H](NC(=O)[C@H](Cc1c[nH]cn1)NC(=O)[C@H](CCC(N)=O)NC(=O)[C@H](CC(=O)O)NC(=O)[C@H](CCC(=O)O)NC(=O)[C@H](CC(=O)O)NC(=O)[C@H](Cc1ccccc1)NC(=O)[C@@H]1CCCN1C(=O)CCC(=O)NCCCOCCOCCOCCCNC(=O)CCCC[C@@H]1SC[C@@H]2NC(=O)N[C@@H]21)[C@@H](C)O)C(=O)N[C@H](C(=O)N[C@@H](CCCCN)C(=O)N[C@H](C(=O)O)C(C)C)[C@@H](C)O [PTEN_13] ({X1-Suc}-PFDEDQHTQITKV-OH) (system: HTRA1-1 (Homo sapiens)).
Sequence (Q92743 365-467 limits assumed): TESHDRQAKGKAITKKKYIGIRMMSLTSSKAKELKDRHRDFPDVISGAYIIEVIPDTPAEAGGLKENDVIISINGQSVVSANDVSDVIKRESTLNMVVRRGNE
52.3

For HTRA1-1 (Homo sapiens), provide Kd of CC[C@H](C)[C@H](NC(=O)[C@H](CCC(N)=O)NC(=O)[C@@H](NC(=O)[C@H](Cc1c[nH]cn1)NC(=O)[C@H](CCC(N)=O)NC(=O)[C@H](CC(=O)O)NC(=O)[C@H](CCC(=O)O)NC(=O)[C@H](CC(=O)O)NC(=O)CCC(=O)NCCCOCCOCCOCCCNC(=O)CCCC[C@@H]1SC[C@@H]2NC(=O)N[C@@H]21)[C@@H](C)O)C(=O)N[C@H](C(=O)N[C@@H](CCCCN)C(=O)N[C@H](C(=O)O)C(C)C)[C@@H](C)O please.
47.6

====

system-tested: DLG3-2 (Homo sapiens, UniProt Q92796)
Sequence (Q92796 244-330): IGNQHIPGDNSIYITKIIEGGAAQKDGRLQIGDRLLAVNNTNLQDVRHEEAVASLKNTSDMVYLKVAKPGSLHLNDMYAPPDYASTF
test-method-notes: Holdup assay, DLG3-2
Assay type: binding
*1 amine or outer side, *2 acyl side, *3 side chain or, on linkers, in order; H or OH if unused. Where a SMILES comes first, the peptide text is derived from it. The star is where a group is joined. X1 = O=C(CCCC[C@@H]1SC[C@@H]2NC(=O)N[C@@H]21)NCCCOCCOCCOCCCN*; Suc = O=C(CCC(=O)[*:2])[*:1]
Provide the recorded BI for the entries that follow.
When you answer, write just the number.

I'd like to know its BI. The molecule in question is CC[C@H](C)[C@H](NC(=O)[C@H](CCC(N)=O)NC(=O)[C@@H](NC(=O)[C@H](Cc1c[nH]cn1)NC(=O)[C@H](CCC(N)=O)NC(=O)[C@H](CC(=O)O)NC(=O)[C@H](CCC(=O)O)NC(=O)[C@H](CC(=O)O)NC(=O)[C@H](Cc1ccccc1)NC(=O)[C@@H]1CCCN1C(=O)CCC(=O)NCCCOCCOCCOCCCNC(=O)CCCC[C@@H]1SC[C@@H]2NC(=O)N[C@@H]21)[C@@H](C)O)C(=O)N[C@H](C(=O)N[C@@H](CCCCN)C(=O)N[C@H](C(=O)O)C(C)C)[C@@H](C)O [PTEN_13] ({X1-Suc}-PFDEDQHTQITKV-OH)
0.089

I am curious: what BI value has been reported for CC[C@H](C)[C@H](NC(=O)[C@H](CCC(N)=O)NC(=O)[C@@H](NC(=O)[C@H](Cc1c[nH]cn1)NC(=O)[C@H](CCC(N)=O)NC(=O)[C@H](CC(=O)O)NC(=O)[C@H](CCC(=O)O)NC(=O)[C@H](CC(=O)O)NC(=O)CCC(=O)NCCCOCCOCCOCCCNC(=O)CCCC[C@@H]1SC[C@@H]2NC(=O)N[C@@H]21)[C@@H](C)O)C(=O)N[C@H](C(=O)N[C@@H](CCCNC(=N)N)C(=O)N[C@H](C(=O)O)C(C)C)[C@@H](C)O [PTEN_KR] ({X1-Suc}-DEDQHTQITRV-OH) ?
0.277

Quick check: BI of CC[C@H](C)[C@H](NC(=O)[C@H](CCC(N)=O)NC(=O)[C@@H](NC(=O)[C@H](Cc1c[nH]cn1)NC(=O)[C@H](CCC(N)=O)NC(=O)[C@H](CC(=O)O)NC(=O)[C@H](CCC(=O)O)NC(=O)[C@H](CC(=O)O)NC(=O)CCC(=O)NCCCOCCOCCOCCCNC(=O)CCCC[C@@H]1SC[C@@H]2NC(=O)N[C@@H]21)[C@@H](C)O)C(=O)N[C@H](C(=O)N[C@@H](CCCCNC(C)=O)C(=O)N[C@H](C(=O)O)C(C)C)[C@@H](C)O ?
0.445

The reported numbers originate from paper PMC7774954.
